Consider the following compounds; for each one, report its half-life.
Assay: Half life in Sprague-Dawley rat at 1 mg/kg
Type: ADME, organism-based
Design: dose 1 mg/kg
Details: in vivo
Give bare numbers, in min.

The cases that follow already have their half-life on record.
{"columns": ["smiles str", "result"],
 "data": [
  ["CC(CO)(CO)C(=O)N1CCC(CCN2CCC(N(C(=O)NCc3ccc(C#N)cc3)c3cccc(F)c3)CC2)(c2cccc(F)c2)CC1", 264],
  ["CC(C)(C)C(=O)N1CCC(CCN2CCC(N(C(=O)NCc3ccc(C#N)cc3)c3cccc(F)c3)CC2)(c2cccc(F)c2)CC1", 144]
]}

Here is another compound to look at.
Form: compound = `N#Cc1ccc(CNC(=O)N(c2cccc(F)c2)C2CCN(CCC3(c4cccc(F)c4)CCN(C(=O)c4ccnc(Cl)c4)CC3)CC2)cc1` ; half-life = 348

====

Assay: Half life in Sprague-Dawley rat at 1 mg/kg
Assay type: ADME, organism-based
Set-up: dose 1 mg/kg
Conditions: in vivo
Use Y when the recorded half-life is no lower than 3 h; use N when it is lower.

The following compounds have reported results that may help.
{"columns": ["smiles str", "label value"],
 "data": [
  ["Cn1cc(Cl)c(C(=O)N2CCC(CCN3CCC(N(C(=O)NCc4ccc(C#N)cc4)c4cccc(F)c4)CC3)(c3cccc(F)c3)CC2)n1", "N"],
  ["N#Cc1ccc(CNC(=O)N(c2cccc(F)c2)C2CCN(CCC3(c4cccc(F)c4)CCN(C(=O)C4CCOCC4)CC3)CC2)cc1", "N"],
  ["CC(C)(C#N)C(=O)N1CCC(CCN2CCC(N(C(=O)NCc3ccc(C#N)cc3)c3cccc(F)c3)CC2)(c2cccc(F)c2)CC1", "Y"]
]}

q: hey, is half-life for this one >= 3 h? `N#Cc1ccc(CNC(=O)N(c2cccc(F)c2)C2CCN(CCC3(c4cccc(F)c4)CCN(C(=O)c4cccnc4F)CC3)CC2)cc1`
a: Y

q: Please tell me: is the compound `CC(C)(CO)C(=O)N1CCC(CCN2CCC(N(C(=O)NCc3ccc(C#N)cc3)c3cccc(F)c3)CC2)(c2cccc(F)c2)CC1` at or over 3 h in terms of half-life?
a: N

q: API: above_or_equal(metric=half-life, cutoff=3 h) for item `N#Cc1ccc(CNC(=O)N(c2cccc(F)c2)C2CCN(CCC3(c4cccc(F)c4)CCN(C(=O)c4cn[nH]c4C(F)(F)F)CC3)CC2)cc1`
a: Y

q: Threshold query (half-life >= 3 h) on `N#Cc1ccc(CNC(=O)N(c2cccc(F)c2)C2CCN(CCC3(c4cccc(F)c4)CCN(C(=O)c4c(Cl)cncc4Cl)CC3)CC2)cc1`
a: Y

====

Test system: Human immunodeficiency virus 1
Assay: Antiviral activity against HIV1 BaL in human PBL cells
Type: functional, organism-based
Settings: Human immunodeficiency virus 1, BaL
Assign pIC50 to each entry below.
One number for each entry, as −log10 of the molar value.

Observe how each entry below is paired with its result.
{"columns": ["smiles str", "result"],
 "data": [
  ["N#Cc1ccc(CNC(=O)N(c2cccc(F)c2)C2CCN(CCC3(c4cccc(F)c4)CCN(C(=O)c4cc(S(=O)(=O)N5CCCC5)c(F)cc4F)CC3)CC2)cc1", 9.22],
  ["N#Cc1ccc(CNC(=O)N(c2cccc(F)c2)C2CCN(CCC3(c4cccc(F)c4)CCN(C(=O)c4cc(S(N)(=O)=O)c(F)cc4F)CC3)CC2)cc1", 8.28],
  ["CC(C)(C#N)C(=O)N1CCC(CCN2CCC(N(C(=O)NCc3ccc(C#N)cc3)c3cccc(F)c3)CC2)(c2cccc(F)c2)CC1", 7.31],
  ["N#Cc1ccc(CNC(=O)N(c2cccc(F)c2)C2CCN(CCC3(c4cccc(F)c4)CCN(C(=O)c4ccnc(Cl)c4)CC3)CC2)cc1", 7.89]
]}

Okay, here is my list. What is pIC50 for each of these?
1. N#Cc1ccc(CNC(=O)N(c2cccc(F)c2)C2CCN(CCC3(c4cccc(F)c4)CCN(C(=O)c4nsnc4O)CC3)CC2)cc1
2. CC(C)(CO)C(=O)N1CCC(CCN2CCC(N(C(=O)NCc3ccc(C#N)cc3)c3cccc(F)c3)CC2)(c2cccc(F)c2)CC1

a:
1: 7.39; 2: 7.70

List pIC50 for every entry below, keeping the order given.
1. N#Cc1ccc(CNC(=O)N(c2cccc(F)c2)C2CCN(CCC3(c4cccc(F)c4)CCN(C(=O)c4c(F)ccc(S(N)(=O)=O)c4F)CC3)CC2)cc1
2. CC(C)(C)C(=O)N1CCC(CCN2CCC(N(C(=O)NCc3ccc(C#N)cc3)c3cccc(F)c3)CC2)(c2cccc(F)c2)CC1
3. N#Cc1ccc(CNC(=O)N(c2cccc(F)c2)C2CCN(CCC3(c4cccc(F)c4)CCN(C(=O)c4cccnc4F)CC3)CC2)cc1
4. N#Cc1ccc(CNC(=O)N(c2cccc(F)c2)C2CCN(CCC3(c4cccc(F)c4)CCN(C(=O)c4c(Cl)ccc(S(N)(=O)=O)c4Cl)CC3)CC2)cc1

a:
8.70
8.28
8.21
8.55

// recorded pIC50 for `N#Cc1ccc(CNC(=O)N(c2cccc(F)c2)C2CCN(CCC3(c4cccc(F)c4)CCN(C(=O)C4CCOCC4)CC3)CC2)cc1` : 7.66

====

Assay: Oral bioavailability in Sprague-Dawley rat at 1 mg/kg
Type: ADME, organism-based
Details: in vivo
Mark Y for reported bioavailability of 30% or greater; mark N for anything smaller.

{"columns": ["smiles str", "label value"],
 "data": [
  ["N#Cc1ccc(CNC(=O)N(c2cccc(F)c2)C2CCN(CCC3(c4cccc(F)c4)CCN(C(=O)c4ccnc(Cl)c4)CC3)CC2)cc1", "Y"],
  ["CC(C)(C#N)C(=O)N1CCC(CCN2CCC(N(C(=O)NCc3ccc(C#N)cc3)c3cccc(F)c3)CC2)(c2cccc(F)c2)CC1", "N"],
  ["CC(C)(CO)C(=O)N1CCC(CCN2CCC(N(C(=O)NCc3ccc(C#N)cc3)c3cccc(F)c3)CC2)(c2cccc(F)c2)CC1", "Y"],
  ["CC(C)(C)NS(=O)(=O)c1ccc(Cl)c(C(=O)N2CCC(CCN3CCC(N(C(=O)NCc4ccc(C#N)cc4)c4cccc(F)c4)CC3)(c3cccc(F)c3)CC2)c1Cl", "N"],
  ["Cn1cc(Cl)c(C(=O)N2CCC(CCN3CCC(N(C(=O)NCc4ccc(C#N)cc4)c4cccc(F)c4)CC3)(c3cccc(F)c3)CC2)n1", "N"]
]}

q: Hi team, for `N#Cc1ccc(CNC(=O)N(c2cccc(F)c2)C2CCN(CCC3(c4cccc(F)c4)CCN(C(=O)c4cc(S(=O)(=O)N5CCCC5)c(F)cc4Cl)CC3)CC2)cc1` , is the recorded bioavailability at or above 30%?
a: N

====

Assay: Clearance in Sprague-Dawley rat at 1 mg/kg
Assay type: ADME, organism-based
Design: dose 1 mg/kg
Conditions: in vivo
Would you kindly list clearance for each of these molecules?
One number for each entry, in mL/min/kg.

{"columns": ["smiles str", "clearance (mL/min/kg)"],
 "data": [
  ["N#Cc1ccc(CNC(=O)N(c2cccc(F)c2)C2CCN(CCC3(c4cccc(F)c4)CCN(C(=O)c4c(Cl)cncc4Cl)CC3)CC2)cc1", 24]
]}

// each listed molecule needs a value for clearance
1. N#Cc1ccc(CNC(=O)N(c2cccc(F)c2)C2CCN(CCC3(c4cccc(F)c4)CCN(C(=O)c4cc(S(N)(=O)=O)c(F)cc4F)CC3)CC2)cc1
2. CC(C)(C)NS(=O)(=O)c1ccc(Cl)c(C(=O)N2CCC(CCN3CCC(N(C(=O)NCc4ccc(C#N)cc4)c4cccc(F)c4)CC3)(c3cccc(F)c3)CC2)c1Cl
3. N#Cc1ccc(CNC(=O)N(c2cccc(F)c2)C2CCN(CCC3(c4cccc(F)c4)CCN(C(=O)c4cc(S(=O)(=O)N5CC[C@H](O)C5)c(F)cc4F)CC3)CC2)cc1
4. N#Cc1ccc(CNC(=O)N(c2cccc(F)c2)C2CCN(CCC3(c4cccc(F)c4)CCN(C(=O)c4c(Cl)ccc(S(N)(=O)=O)c4Cl)CC3)CC2)cc1
5. CC(C)(C#N)C(=O)N1CCC(CCN2CCC(N(C(=O)NCc3ccc(C#N)cc3)c3cccc(F)c3)CC2)(c2cccc(F)c2)CC1

a:
1: 31; 2: 9; 3: 43; 4: 16; 5: 12

====

Assay: Oral bioavailability in Sprague-Dawley rat at 1 mg/kg
Format: ADME, organism-based
Conditions: in vivo
test readout: bioavailability (%)
Numbers only, in %.

{"columns": ["smiles str", "unit abbreviation", "bioavailability"],
 "data": [
  ["N#Cc1ccc(CNC(=O)N(c2cccc(F)c2)C2CCN(CCC3(c4cccc(F)c4)CCN(C(=O)c4cc(S(=O)(=O)N5CCCC5)c(F)cc4F)CC3)CC2)cc1", "%", 10],
  ["N#Cc1ccc(CNC(=O)N(c2cccc(F)c2)C2CCN(CCC3(c4cccc(F)c4)CCN(C(=O)c4cccnc4F)CC3)CC2)cc1", "%", 60],
  ["N#Cc1ccc(CNC(=O)N(c2cccc(F)c2)C2CCN(CCC3(c4cccc(F)c4)CCN(C(=O)c4cn[nH]c4C(F)(F)F)CC3)CC2)cc1", "%", 3],
  ["CC(CO)(CO)C(=O)N1CCC(CCN2CCC(N(C(=O)NCc3ccc(C#N)cc3)c3cccc(F)c3)CC2)(c2cccc(F)c2)CC1", "%", 7],
  ["N#Cc1ccc(CNC(=O)N(c2cccc(F)c2)C2CCN(CCC3(c4cccc(F)c4)CCN(C(=O)c4cc(S(=O)(=O)N5CC[C@H](O)C5)c(F)cc4F)CC3)CC2)cc1", "%", 0]
]}

--- query ---
What the record says about `N#Cc1ccc(CNC(=O)N(c2cccc(F)c2)C2CCN(CCC3(c4cccc(F)c4)CCN(C(=O)c4cc(S(=O)(=O)N5CC[C@H](O)C5)c(F)cc4Cl)CC3)CC2)cc1` : bioavailability is 8
